B1: library; a variant is named by its letters at N, in order (parent)
chain: GAGACCGCAACTGAAAAGTTGTGGNNNNNATAGTGAGTCGCTGCCTGCAAAGACACAACT

Variants of: B1
Assay: ligation selection enrichment (abundance after / before one-round selection) (fold); higher = more template-directed ligation activity
Conditions: with T7Psub CACGGAUGCUAAUACGACUCACUAUA; MgCl2 25 mM; 42 °C; 4 h; pH 8.5
Recorded ligation selection enrichment values for a group of variants are listed next.

| SEQUENCE_CHAIN | ligation selection enrichment |
| --- | --- |
| GAGACCGCAACTGAAAAGTTGTGGAGGACATAGTGAGTCGCTGCCTGCAAAGACACAACT [AGGAC] | 14.4 |
| GAGACCGCAACTGAAAAGTTGTGGTAGACATAGTGAGTCGCTGCCTGCAAAGACACAACT [TAGAC] | 1.03 |
| GAGACCGCAACTGAAAAGTTGTGGCTGGGATAGTGAGTCGCTGCCTGCAAAGACACAACT [CTGGG] | 0.152 |
| GAGACCGCAACTGAAAAGTTGTGGGTTATATAGTGAGTCGCTGCCTGCAAAGACACAACT [GTTAT] | 1.54 |
| GAGACCGCAACTGAAAAGTTGTGGTAAGGATAGTGAGTCGCTGCCTGCAAAGACACAACT [TAAGG] | 0.733 |
| GAGACCGCAACTGAAAAGTTGTGGCACAAATAGTGAGTCGCTGCCTGCAAAGACACAACT [CACAA] | 0.132 |
| GAGACCGCAACTGAAAAGTTGTGGGATCTATAGTGAGTCGCTGCCTGCAAAGACACAACT [GATCT] | 0.306 |
| GAGACCGCAACTGAAAAGTTGTGGATATGATAGTGAGTCGCTGCCTGCAAAGACACAACT [ATATG] | 1.01 |
| GAGACCGCAACTGAAAAGTTGTGGGGCCGATAGTGAGTCGCTGCCTGCAAAGACACAACT [GGCCG] | 0.746 |
| GAGACCGCAACTGAAAAGTTGTGGAGGGTATAGTGAGTCGCTGCCTGCAAAGACACAACT [AGGGT] | 0.289 |
| GAGACCGCAACTGAAAAGTTGTGGTTGGGATAGTGAGTCGCTGCCTGCAAAGACACAACT [TTGGG] | 0.218 |
| GAGACCGCAACTGAAAAGTTGTGGGAATAATAGTGAGTCGCTGCCTGCAAAGACACAACT [GAATA] | 0.175 |
| GAGACCGCAACTGAAAAGTTGTGGGACTGATAGTGAGTCGCTGCCTGCAAAGACACAACT [GACTG] | 0.762 |
| GAGACCGCAACTGAAAAGTTGTGGTGGTTATAGTGAGTCGCTGCCTGCAAAGACACAACT [TGGTT] | 0.438 |
| GAGACCGCAACTGAAAAGTTGTGGTCGAGATAGTGAGTCGCTGCCTGCAAAGACACAACT [TCGAG] | 0.704 |
| GAGACCGCAACTGAAAAGTTGTGGAAACGATAGTGAGTCGCTGCCTGCAAAGACACAACT [AAACG] | 0.742 |
| GAGACCGCAACTGAAAAGTTGTGGGTCACATAGTGAGTCGCTGCCTGCAAAGACACAACT [GTCAC] | 0.221 |
| GAGACCGCAACTGAAAAGTTGTGGTGATCATAGTGAGTCGCTGCCTGCAAAGACACAACT [TGATC] | 0.143 |
| GAGACCGCAACTGAAAAGTTGTGGTCAAGATAGTGAGTCGCTGCCTGCAAAGACACAACT [TCAAG] | 0.718 |
| GAGACCGCAACTGAAAAGTTGTGGTATTGATAGTGAGTCGCTGCCTGCAAAGACACAACT [TATTG] | 2.17 |
| GAGACCGCAACTGAAAAGTTGTGGATGGGATAGTGAGTCGCTGCCTGCAAAGACACAACT [ATGGG] | 0.265 |
| GAGACCGCAACTGAAAAGTTGTGGCTCTAATAGTGAGTCGCTGCCTGCAAAGACACAACT [CTCTA] | 0.182 |
